test-target: T1, CRBN, Q96SW2;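 also: pooled lentiviral library of zinc finger degron-EGFP fusions in mCherry-positive Jurkat cells, FACS-sorted after compound exposure, with degron abundance counted by next-generation sequencing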
T1 chain: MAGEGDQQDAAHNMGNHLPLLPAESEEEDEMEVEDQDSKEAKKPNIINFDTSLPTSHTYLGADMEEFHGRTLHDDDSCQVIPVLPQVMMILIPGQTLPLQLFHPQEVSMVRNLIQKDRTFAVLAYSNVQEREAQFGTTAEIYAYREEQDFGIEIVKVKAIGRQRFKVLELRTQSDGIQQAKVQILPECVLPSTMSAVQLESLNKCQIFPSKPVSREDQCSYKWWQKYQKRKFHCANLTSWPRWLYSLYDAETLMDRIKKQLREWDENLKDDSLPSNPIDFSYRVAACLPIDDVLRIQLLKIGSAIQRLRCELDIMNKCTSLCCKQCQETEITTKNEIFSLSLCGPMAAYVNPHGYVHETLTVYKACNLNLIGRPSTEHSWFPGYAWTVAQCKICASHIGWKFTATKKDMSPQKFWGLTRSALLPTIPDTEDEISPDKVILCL
assay-method-text: log2 fold change of degron read counts, EGFP-low vs EGFP+ sorted cells (limma voom), compound-induced degradation; higher = more compound-induced degradation of the degron-EGFP fusion; degrons are variants of IKZF1/3 zinc finger 2; compound dose not given here
condition-notes: Jurkat; 18 h; compound: compound 19 (5-tert-butyl-thalidomide)
In all, about 8,300 sequences were measured (“log2 fold change of degron read counts, EGFP-low vs EGFP+ sorted cells (limma voom), compound-induced degradation”: median about -1.1, highest 2% from about 3.2 on). Only a selection was taken, and the highest values are over-represented in it overall.
Listing: log2 fold change of degron read counts of selected sequences

| sequence-text | data-value |
| --- | --- |
| FRCDQCGAQFTQKGNLLRHIKL [46F_47R_49D_50Q_52G_53A_54Q_55F_67L_, Q9UKT9] | -2.54 |
| FTCEICGAVFTQKGNLLRHIKL [46F_47T_49E_50I_52G_53A_54V_55F_67L_, Q9UKT9] | 0.417 |

Tell me the measured log2 fold change of degron read counts of FHCPICGRQFTQKGNLLRHIKL [46F_47H_49P_50I_52G_53R_54Q_55F_67L_, Q9UKT9] , please.
0.0895

Looking for the measured log2 fold change of degron read counts of FICEICGRIFTQKGNLLRHIKL [46F_47I_49E_50I_52G_53R_54I_55F_67L_, Q9UKT9] , can you help?
-1.03
